system: CAL-54 (Kidney Carcinoma); test: combination Emax (second highest fraction inhibited in the dose matrix, 72 h); higher = more inhibition; extreme values may be limits of the assay
Parameter: combination Emax

INSERT INTO measurements (compound, quantitative_result) VALUES
  ('COc1cccc(OCCCN)c1-c1cc(Nc2cnc(C#N)cn2)n[nH]1 [Prexasertib] + C[C@@H]1COCCN1C2=NC(=NC(=C2)C3(CC3)[S@](=N)(=O)C)C4=C5C=CNC5=NC=C4 [AZD6738] (first compound max 1 µM, 7x7, partner max 10 µM)', 0.84),
  ('Cc1cc2ncnn2cc1Nc1ncc2c(n1)n(C1CCOCC1)c(=O)n2C [AZD7648] + O=C(c1cc(Cc2n[nH]c(=O)c3ccccc23)ccc1F)N1CCN(C(=O)C2CC2)CC1 [Olaparib] (first compound max 10 µM, 7x7, partner max 10 µM)', 0.218),
  ('C=CCn1c(=O)c2cnc(Nc3ccc(N4CCN(C)CC4)cc3)nc2n1-c1cccc(C(C)(C)O)n1 [AZD1775] + C1CN(CCC1(C(=O)N[C@@H](CCO)C2=CC=C(C=C2)Cl)N)C3=NC=NC4=C3C=CN4 [Capivasertib] (first compound max 3 µM, partner max 3 µM)', 0.782),
  ('NC1(C(=O)N[C@@H](CCO)c2ccc(Cl)cc2)CCN(c2ncnc3[nH]ccc23)CC1 [Capivasertib] + Cn1cnc2c(F)c(Nc3ccc(Br)cc3Cl)c(C(=O)NOCCO)cc21 [Selumetinib] (first compound max 10 µM, 7x7, partner max 10 µM)', 0.611),
  ('CC(=O)c1c(C)c2cnc(Nc3ccc(N4CCNCC4)cn3)nc2n(C2CCCC2)c1=O [Palbociclib] + Cc1c2c(nn1C)CSCc1cc(n(C)n1)CSc1cc(c3ccccc3c1)OCCCc1c(C(=O)O)n(C)c3c-2c(Cl)ccc13 [AZD5991] (first compound max 10 µM, 7x7, partner max 1 µM)', 0.583),
  ('CN(CCO)CC[C@H](CSc1ccccc1)Nc1ccc(S(=O)(=O)NC(=O)c2ccc(N3CCC([C@@H](O)c4ccccc4-c4ccc(Cl)cc4)CC3)cc2)cc1S(=O)(=O)C(F)(F)F [AZD4320] + Cn1cnc2c(F)c(Nc3ccc(Br)cc3Cl)c(C(=O)NOCCO)cc21 [Selumetinib] (first compound max 1 µM, 7x7, partner max 3 µM)', 0.311),
  ('CC(=O)c1c(C)c2cnc(Nc3ccc(N4CCNCC4)cn3)nc2n(C2CCCC2)c1=O [Palbociclib] + Cn1cnc2c(F)c(Nc3ccc(Br)cc3Cl)c(C(=O)NOCCO)cc21 [Selumetinib] (first compound max 10 µM, 7x7, partner max 10 µM)', 0.616),
  ('N#Cc1cnc(Nc2cc(NC[C@H]3CNCCO3)c(C(F)(F)F)cn2)cn1 [SRA737] + O=c1[nH]cc(F)c(=O)[nH]1 [5-Fluorouracil] (first compound max 10 µM, 7x7, partner max 20 µM)', 0.565),
  ('CC1(C)CCC(CN2CCN(c3ccc(C(=O)NS(=O)(=O)c4ccc(NCC5CCOCC5)c([N+](=O)[O-])c4)c(Oc4cnc5[nH]ccc5c4)c3)CC2)=C(c2ccc(Cl)cc2)C1 [Venetoclax] + C=CCn1c(=O)c2cnc(Nc3ccc(N4CCN(C)CC4)cc3)nc2n1-c1cccc(C(C)(C)O)n1 [AZD1775] (first compound max 1 µM, partner max 1 µM)', 0.795),
  ('CN(C)CCCOc1ccc(-c2ccc3ncc4c(c3c2)n(C2CCOCC2)c(=O)n4C)cn1 [AZD0156] + C=CCn1c(=O)c2cnc(Nc3ccc(N4CCN(C)CC4)cc3)nc2n1-c1cccc(C(C)(C)O)n1 [AZD1775] (first compound max 1 µM, partner max 1 µM)', 0.642),
  ('Cc1cc2ncnn2cc1Nc1ncc2c(n1)n(C1CCOCC1)c(=O)n2C [AZD7648] + CN(C)CCCOc1ccc(-c2ccc3ncc4c(c3c2)n(C2CCOCC2)c(=O)n4C)cn1 [AZD0156] (first compound max 10 µM, 7x7, partner max 1 µM)', 0.353),
  ('Cc1cc2ncnn2cc1Nc1ncc2c(n1)n(C1CCOCC1)c(=O)n2C [AZD7648] + C[C@@H]1COCCN1C2=NC(=NC(=C2)C3(CC3)[S@](=N)(=O)C)C4=C5C=CNC5=NC=C4 [AZD6738] (first compound max 10 µM, 7x7, partner max 10 µM)', 0.769),
  ('N#Cc1cnc(Nc2cc(NC[C@H]3CNCCO3)c(C(F)(F)F)cn2)cn1 [SRA737] + C=CCn1c(=O)c2cnc(Nc3ccc(N4CCN(C)CC4)cc3)nc2n1-c1cccc(C(C)(C)O)n1 [AZD1775] (first compound max 10 µM, partner max 1 µM)', 0.749),
  ('CC1(C)CCC(CN2CCN(c3ccc(C(=O)NS(=O)(=O)c4ccc(NCC5CCOCC5)c([N+](=O)[O-])c4)c(Oc4cnc5[nH]ccc5c4)c3)CC2)=C(c2ccc(Cl)cc2)C1 [Venetoclax] + Cn1cnc2c(F)c(Nc3ccc(Br)cc3Cl)c(C(=O)NOCCO)cc21 [Selumetinib] (first compound max 1 µM, 7x7, partner max 3 µM)', 0.205);

###

tested on: SW626 (Colorectal Carcinoma); assay: Bliss excess, mean over the matrix (fraction); higher = more synergy;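 also: after 72 h of two-drug dosing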
Could you label it 1 if measured Bliss excess is -0.03 or higher, and 0 otherwise?

INSERT INTO measurements (compound, class) VALUES
  ('COc1nnc2ccc(N3CCC(c4ccc(OCCN5CCN(C)C(=O)[C@H]5C)cc4)CC3)nn12 [AZD5153] + CN(CC[C@H](CSC1=CC=CC=C1)NC2=C(C=C(C=C2)S(=O)(=O)NC(=O)C3=CC=C(C=C3)N4CCC(CC4)[C@H](C5=CC=CC=C5C6=CC=C(C=C6)Cl)O)S(=O)(=O)C(F)(F)F)CCO [AZD4320] (first compound max 1 µM, 7x7, partner max 1 µM)', 1),
  ('CN(C)CCCOc1ccc(-c2ccc3ncc4c(c3c2)n(C2CCOCC2)c(=O)n4C)cn1 [AZD0156] + CCN(CCO)CCCOc1ccc2c(Nc3cc(CC(=O)Nc4cccc(F)c4)[nH]n3)ncnc2c1 [AZD2811] (first compound max 1 µM, 7x7, partner max 1 µM)', 0),
  ('Cn1cnc2c(F)c(Nc3ccc(Br)cc3Cl)c(C(=O)NOCCO)cc21 [Selumetinib] + CCN(CCO)CCCOc1ccc2c(Nc3cc(CC(=O)Nc4cccc(F)c4)[nH]n3)ncnc2c1 [AZD2811] (first compound max 10 µM, 7x7, partner max 1 µM)', 1),
  ('CC1(C)CCC(CN2CCN(c3ccc(C(=O)NS(=O)(=O)c4ccc(NCC5CCOCC5)c([N+](=O)[O-])c4)c(Oc4cnc5[nH]ccc5c4)c3)CC2)=C(c2ccc(Cl)cc2)C1 [Venetoclax] + C[C@@H]1COCCN1C2=NC(=NC(=C2)C3(CC3)[S@](=N)(=O)C)C4=C5C=CNC5=NC=C4 [AZD6738] (first compound max 1 µM, 7x7, partner max 10 µM)', 0),
  ('Cc1nc(Nc2ncc(C(=O)Nc3c(C)cccc3Cl)s2)cc(N2CCN(CCO)CC2)n1 [Dasatinib] + CC(=O)Nc1cccc(-n2c(=O)n(C3CC3)c(=O)c3c(Nc4ccc(I)cc4F)n(C)c(=O)c(C)c32)c1 [Trametinib] (first compound max 2 µM, 7x7, partner max 1 µM)', 1),
  ('CS(=O)(=O)CCNCc1ccc(-c2ccc3ncnc(Nc4ccc(OCc5cccc(F)c5)c(Cl)c4)c3c2)o1 [Lapatinib] + C[C@@H](Oc1cc(-c2cnn(C3CCNCC3)c2)cnc1N)c1c(Cl)ccc(F)c1Cl [Crizotinib] (first compound max 10 µM, 7x7, partner max 10 µM)', 0),
  ('CN(C)CCCOc1ccc(-c2ccc3ncc4c(c3c2)n(C2CCOCC2)c(=O)n4C)cn1 [AZD0156] + O=C(c1cc(Cc2n[nH]c(=O)c3ccccc23)ccc1F)N1CCN(C(=O)C2CC2)CC1 [Olaparib] (first compound max 3 µM, partner max 3 µM)', 0),
  ('CN(C)CCCOc1ccc(-c2ccc3ncc4c(c3c2)n(C2CCOCC2)c(=O)n4C)cn1 [AZD0156] + C=CCn1c(=O)c2cnc(Nc3ccc(N4CCN(C)CC4)cc3)nc2n1-c1cccc(C(C)(C)O)n1 [AZD1775] (first compound max 1 µM, partner max 1 µM)', 0);

###

tested on: NB14 (Neuroblastoma); experiment: combination Emax (second highest fraction inhibited in the dose matrix, 72 h); higher = more inhibition; extreme values may be limits of the assay
Parameter: combination Emax

INSERT INTO results (compound, measured_target, parameter, quantitative_result) VALUES
  ('CC(=O)Nc1cccc(-n2c(=O)n(C3CC3)c(=O)c3c(Nc4ccc(I)cc4F)n(C)c(=O)c(C)c32)c1 [Trametinib] + Cc1nc(-c2cn3c(n2)-c2ccc(-c4cnn(C(C)(C)C(N)=O)c4)cc2OCC3)n(C(C)C)n1 [Taselisib] (first compound max 1 µM, 7x7, partner max 10 µM)', 'NB14 (Neuroblastoma)', 'combination Emax', 0.822),
  ('NC1(C(=O)N[C@@H](CCO)c2ccc(Cl)cc2)CCN(c2ncnc3[nH]ccc23)CC1 [Capivasertib] + CC(C)n1c(=O)n(C)c2cnc3cc(F)c(-c4ccc(OCCCN5CCCCC5)nc4)cc3c21 [AZD1390] (first compound max 10 µM, 7x7, partner max 0.3 µM)', 'NB14 (Neuroblastoma)', 'combination Emax', 0.381),
  ('CS(=O)(=O)CCNCc1ccc(-c2ccc3ncnc(Nc4ccc(OCc5cccc(F)c5)c(Cl)c4)c3c2)o1 [Lapatinib] + C[C@@H](Oc1cc(-c2cnn(C3CCNCC3)c2)cnc1N)c1c(Cl)ccc(F)c1Cl [Crizotinib] (first compound max 10 µM, 7x7, partner max 10 µM)', 'NB14 (Neuroblastoma)', 'combination Emax', 0.979),
  ('O=C(c1cc(Cc2n[nH]c(=O)c3ccccc23)ccc1F)N1CCN(C(=O)C2CC2)CC1 [Olaparib] + Cc1c2c(nn1C)CSCc1cc(n(C)n1)CSc1cc(c3ccccc3c1)OCCCc1c(C(=O)O)n(C)c3c-2c(Cl)ccc13 [AZD5991] (first compound max 10 µM, 7x7, partner max 1 µM)', 'NB14 (Neuroblastoma)', 'combination Emax', 0.595),
  ('CC(=O)c1c(C)c2cnc(Nc3ccc(N4CCNCC4)cn3)nc2n(C2CCCC2)c1=O [Palbociclib] + CC1(C)CCC(CN2CCN(c3ccc(C(=O)NS(=O)(=O)c4ccc(NCC5CCOCC5)c([N+](=O)[O-])c4)c(Oc4cnc5[nH]ccc5c4)c3)CC2)=C(c2ccc(Cl)cc2)C1 [Venetoclax] (first compound max 10 µM, 7x7, partner max 1 µM)', 'NB14 (Neuroblastoma)', 'combination Emax', 0.734),
  ('CN(CCO)CC[C@H](CSc1ccccc1)Nc1ccc(S(=O)(=O)NC(=O)c2ccc(N3CCC([C@@H](O)c4ccccc4-c4ccc(Cl)cc4)CC3)cc2)cc1S(=O)(=O)C(F)(F)F [AZD4320] + Cn1cnc2c(F)c(Nc3ccc(Br)cc3Cl)c(C(=O)NOCCO)cc21 [Selumetinib] (first compound max 1 µM, 7x7, partner max 3 µM)', 'NB14 (Neuroblastoma)', 'combination Emax', 1),
  ('COc1cccc(OCCCN)c1-c1cc(Nc2cnc(C#N)cn2)n[nH]1 [Prexasertib] + CCc1c2c(nc3ccc(O)cc13)-c1cc3c(c(=O)n1C2)COC(=O)[C@]3(O)CC [SN-38] (first compound max 1 µM, 7x7, partner max 0.3 µM)', 'NB14 (Neuroblastoma)', 'combination Emax', 1);
